Molecular target: T1, Human FXIa protein (activated coagulation factor XI) (human, UniProt P03951 19-625)
T1 construct: Bought from Enzyme Research Laboratories (HFXIa 1111a); also called factor XIa; HFXIa 1111a
Assay: SPR (Biacore T200), antibody captured on Protein A chip, FXIa as analyte, 1:1 Langmuir fit
Reported property: koff (s⁻¹)
Value expressed in s⁻¹; do not type the unit.

Guide cases for koff, answers given:
- Binder: "antibody 3875 (antibody, V domains shown, Humanized from 3807: VH is 3807-VH5 and VL is 3807-VL3) VH: QVQLVQSGAEVKKPGSSVKVSCKASGFNIKDDYMHWVRQAPGQGLEWMGWIDPENGDTEYASKFQGRVTITADTSANTAYMELSSLRSEDTAVYYCLYGNFYYFDYWGQGTTVTVSS VL: EIVLTQSPATLSLSPGERATLSCSASSSINYMHWYQQKPGQAPKRWIYDTSKLASGVPARFSGSGSGTDFTLTISSLEPEDFAVYYCHQRSFSPLTFGQGTKLEIK"
  koff, s⁻¹: 0.000336
- Binder: "antibody 3807 (antibody, V domains shown, Murine variable regions; also called murine antibody 3807; hybridoma clone 3807) VH: EVQLQQSGAELVRPGTSVKLSCIASGFNIKDDYMHWVKQRPEQGLEWIGWIDPENGDTEYASKFQGKATITADTSANTAYLQFSSLTSEDTAVYYCLYGNFYYFDYWGQGTTLTVSS VL: QIVLTQSPAIMSASPGEKVTMTCSASSSINYMHWYQQKPGTSPKRWIYDTSKLASGVPARFSGSGSGTSYSLTISSMEAEDAATYYCHQRSFSPLTFGAGTKLELK"
  koff, s⁻¹: 0.000235

Okay, now this binder:
Param item = antibody 3871 (antibody, V domains shown, Humanized from 3807: VH is 3807-VH1 and VL is 3807-VL3) VH: QVQLVQSGAEVKKPGSSVKVSCKASGFNIKDDYMHWVRQAPGQGLEWMGWIDPENGDTEYASKFQGRVTITADESTSTAYMELSSLRSEDTAVYYCLYGNFYYFDYWGQGTTVTVSS VL: EIVLTQSPATLSLSPGERATLSCSASSSINYMHWYQQKPGQAPKRWIYDTSKLASGVPARFSGSGSGTDFTLTISSLEPEDFAVYYCHQRSFSPLTFGQGTKLEIK ; retrieve measured koff.
0.000708

meta.source: patent US20230220111A1
